System: Wolbachia pipientis
Assay: Anti-Wolbachia Cell-Based Screen
Type: functional
Parameters: scale not given: in the data most compounds retested in dose-response had high values
Conditions: 5 µM
Hit rate of the full screen: of about 48,000 compounds, about 13,000 (27%) showed an effect of 50% or more. This is one part of the list.
Below: a set of entries, each annotated with reported Percent Effect.
Report only the number, with the unit % understood.

Example results:
[
  {
    "compound": "Cc1n[nH]c(=O)c2c(NC(=O)CN3CCC(O)CC3)oc(C)c12",
    "value_unit": "%",
    "observed_measurement": 10.48
  },
  {
    "compound": "O=C(C[C@@H]1COC[C@H]2CN(C(=O)c3cccnc3)C[C@@H]12)N1CCCC1.O=C(O)C(F)(F)F",
    "value_unit": "%",
    "observed_measurement": 97.49
  },
  {
    "compound": "Cc1cccc2c1nc(CCO)n2-c1ccc(N)nc1",
    "value_unit": "%",
    "observed_measurement": -17.09
  },
  {
    "compound": "O=C(Nc1cnccn1)[C@@H]1COC[C@H]2CN(C3CCCC3)C[C@H]21.O=C(O)C(F)(F)F",
    "value_unit": "%",
    "observed_measurement": 2.256
  },
  {
    "compound": "COc1cccnc1NC(=O)c1ccc(COCC(F)(F)F)cc1",
    "value_unit": "%",
    "observed_measurement": 77.14
  }
]

Percent Effect in this record for CC(C)c1ncc(CN2C[C@@H](CN3CCCN(C)CC3)[C@@H](CO)C2)cn1 : -6.838

Measured Percent Effect of Cc1cc(CN2CCN(C(=O)NCCCc3cn[nH]c3C)CC2)on1 : -23.87

Cc1ccsc1-c1nccn1CCN1CCCCC1CO (stereo not given) has a reported Percent Effect of 8.185

The measured Percent Effect associated with COc1ccc2c(C)c(C(=O)NC3CCCOC3)oc2c1 (stereo not given) reads -7.174

CN(C(=O)CSc1ncc[nH]1)C1CC1 yielded Percent Effect of 109.9

The compound listed as CCCc1n[nH]c(C2CN(C(=O)c3cc(F)ccc3OC)CCO2)n1 (stereo not given) shows Percent Effect equal to -4.099

The compound listed as Cc1n[nH]c(C)c1NC(=O)c1cccc(OCC(F)(F)F)n1 shows Percent Effect equal to 9.795

###

System: Wolbachia pipientis
Test: Anti-Wolbachia Cell-Based Screen
Type: functional
Parameters: scale not given: in the data most compounds retested in dose-response had high values
Conditions: 5 µM
In all, about 48,000 compounds went through this assay and about 13,000 (27%) showed an effect of 50% or more. Some of the results follow.
In this section, each of the compounds is paired with its reported Percent Effect.
Kindly provide the numeric value in % only, without the unit symbol.

Use the examples below as a reference point.
[
  {
    "compound": "CN(C)CCOCC1CN(CC2CCOCC2)Cc2nnn(C)c21.O=C(O)C(F)(F)F.O=C(O)C(F)(F)F (stereo not given)",
    "value_unit": "%",
    "Percent Effect": 0.5849
  },
  {
    "compound": "Cc1cncc(C(=O)N2CCC3(CC2)C(=O)Nc2ccccc23)c1",
    "value_unit": "%",
    "Percent Effect": -7.764
  },
  {
    "compound": "Cc1cccc(CN2CCCC3(CCN(c4cccnc4)C3=O)C2)n1 (stereo not given)",
    "value_unit": "%",
    "Percent Effect": -4.562
  },
  {
    "compound": "CCNC(=O)CCc1c(C)nc2cc(O)nn2c1C",
    "value_unit": "%",
    "Percent Effect": 5.527
  },
  {
    "compound": "CC(C)N(CC(=O)O)Cc1cccc(Br)c1.Cl",
    "value_unit": "%",
    "Percent Effect": -4.939
  }
]

// Percent Effect value for Cc1cnc(C(=O)N(C)Cc2nc(-c3ccccn3)no2)cn1 : -1.871

The measured Percent Effect associated with Cc1ccnc(N2CCCC(c3nccn3C(C)C)C2)n1 (stereo not given) reads 2.014

###

Test system: Wolbachia pipientis
Assay: Anti-Wolbachia Cell-Based Screen
Type: functional
Set-up: scale not given: in the data most compounds retested in dose-response had high values
Details: 5 µM
Hit rate of the full screen: of about 48,000 compounds, about 13,000 (27%) showed an effect of 50% or more. The list shows a part of the results.
parameter: Percent Effect (%)
Dear colleague, please return just the value in %, with no unit written.

Illustrative cases are given below, each with its answer.
[
  {
    "compound": "C=C(C)COc1cccc(C(=O)N(CC)Cc2nccn2C)c1",
    "observed_measurement": 0.123
  },
  {
    "compound": "O=C(Nc1cccc(C(F)(F)F)c1)N1CCN(CCn2ccnc2)CC1",
    "observed_measurement": 2.864
  },
  {
    "compound": "CCc1ccc(C(=O)Nc2ccc(CC3CC(=O)NC3=O)cc2)cc1 (centres undefined)",
    "observed_measurement": -15.63
  },
  {
    "compound": "COc1ccc(Oc2cc(CN)ccn2)cc1",
    "observed_measurement": 98.96
  },
  {
    "compound": "O=C(c1ncccc1O)N1CCc2c(nc(-c3ccncc3)[nH]c2=O)C1",
    "observed_measurement": -0.3257
  }
]

Record summary for CCc1ccc(C(=O)Nc2ccc(CC3CC(=O)NC3=O)cc2)s1 (centres undefined) : reported Percent Effect = -2.558

What the record says about C=C(C)COc1cccc(C(=O)NCCCc2nnn[nH]2)c1 : Percent Effect is 109

Given item CCN(CCC(=O)OC)C(=O)c1cccc(Cn2nc(C)cc2C)c1 , the value recorded as its Percent Effect is 2.618

Reported Percent Effect ( O=C(c1cc[nH]n1)N1CCc2c(nc(N3CCCCC3)[nH]c2=O)C1 ) = 120.1

Field Percent Effect (entry O=C(NCCN1CCCCC1)c1nc(-c2ccc3cc[nH]c3c2)no1 ) reads 1.073

Reported Percent Effect for Cc1cc(C)n(Cc2ccc(-c3noc(C(=O)NCCCO)n3)cc2)n1 was 113.7

Noted for COc1cccc(-c2cc(CN)ccc2F)c1F : its Percent Effect reads -9.579

// CCc1ccc(NC(=O)CC2Cn3ncnc3NC2=O)cc1 (centres undefined) : Percent Effect value = 123.1

###

Test system: Wolbachia pipientis
Assay: Anti-Wolbachia Cell-Based Screen
Type: functional
Design: scale not given: in the data most compounds retested in dose-response had high values
Settings: 5 µM
Hit rate of the full screen: of about 48,000 compounds, about 13,000 (27%) showed an effect of 50% or more. This is one part of the list.
parameter: Percent Effect (%)
Report the figure in % without appending any unit label.

A selection of reference data follows.
[
  {
    "molecule": "CN(CC1CCN(CCO)CC1)CC(O)c1ccc(F)cc1F (centres undefined)",
    "value_unit": "%",
    "Percent Effect": 7.101
  },
  {
    "molecule": "Cc1nnc([C@@H]2C[C@H]3CN(C(=O)C4CC4)C[C@H]3O2)[nH]1",
    "value_unit": "%",
    "Percent Effect": -12.1
  },
  {
    "molecule": "Cc1ccc(C(=O)N2CC[C@H]3O[C@@H](c4noc(C)n4)C[C@H]3C2)o1",
    "value_unit": "%",
    "Percent Effect": 6.095
  },
  {
    "molecule": "COCC(C)NC(=O)Nc1cc(-c2ccccc2C)nn1CCO (centres undefined)",
    "value_unit": "%",
    "Percent Effect": -26.76
  },
  {
    "molecule": "CC(NC(=O)NCCNc1cccc(F)c1C#N)c1nccs1 (centres undefined)",
    "value_unit": "%",
    "Percent Effect": -8.965
  }
]

CCn1nc(C)cc1C(=O)N1C[C@@H]2C[C@@H](c3nc(C)cs3)O[C@@H]2C1 has a reported Percent Effect of 100.8

Recorded Percent Effect (molecule CCn1nc(C)cc1C(=O)N1C[C@@H]2C[C@@H](C)O[C@@H]2C1.O=C(O)C(F)(F)F ): 99.49

Recorded Percent Effect (molecule CCn1nc(C)cc1C(=O)N1C[C@@H]2C[C@@H](c3noc(C)n3)O[C@@H]2C1 ): 118.5

So, Cc1nc([C@H]2C[C@H]3CN(C(=O)c4cc(C)c(C)s4)CC[C@@H]3O2)no1 ? Its Percent Effect was 1.908

###

Tested on: Wolbachia pipientis
Test: Anti-Wolbachia Cell-Based Screen
Type: functional
Set-up: scale not given: in the data most compounds retested in dose-response had high values
Conditions: 5 µM
Hit rate of the full screen: of about 48,000 compounds, about 13,000 (27%) showed an effect of 50% or more. This is one part of the list.
parameter: Percent Effect (%)
Return type: number; implicit unit %.

[
  {
    "molecule": "CC(C)N(CCNC(=O)c1ccc(S(=O)(=O)NC2CC2)cc1)C(C)C",
    "Percent Effect / %": -4.232
  },
  {
    "molecule": "COCCN(C)C[C@H]1CC[C@@H](Cc2ccc3c(cnn3C)c2)O1",
    "Percent Effect / %": -8.226
  },
  {
    "molecule": "COc1cccc(OCCc2cncc(C(N)=O)c2)c1",
    "Percent Effect / %": -19.41
  }
]

Lab book: Percent Effect of NC(=O)c1cc2c(nc1CCOc1ccc(F)cc1)CCC2 noted as 109.9

Reported Percent Effect ( CC(=O)Nc1c(C)noc1/C=C\c1ccc(S(=O)(=O)N2CCCC2)cc1 ) = 101.8

Measured Percent Effect, NC(=O)c1cc2c(nc1-c1ccc3c(c1)OCCO3)CCC2 : -8.871

Cn1cc(C(=O)N2CCCC(Cc3cccc4ncccc34)C2)cn1 (configuration not stated) has a reported Percent Effect of 153.9

Reported Percent Effect ( Cc1cc(NC(=O)NCc2ccc(S(=O)(=O)N3CCCC3)s2)no1 ) = -7.015

Entry Cc1noc(C)c1C(=O)N(C)C(C)c1ccc(S(C)(=O)=O)cc1 (configuration not stated) ; Percent Effect = -13.22

For CN1CCCCC1Cc1nc2c(cc1C(N)=O)CCC2 (configuration not stated) the molecule record lists Percent Effect as -3.187

// Percent Effect value for Cn1ncc(C2CC(=O)NCc3nc4sccn4c32)c1C1CC1 (configuration not stated) : -19.57

get_value(item= NC(=O)c1cc2c(nc1CCOCc1ccccc1)CCC2 , readout=Percent Effect) returns 91.73
